# assay.target: EGFR (T790M) (h) (Homo sapiens (Human), UniProt P00533, T790M)
# Sequence (P00533 25-1210 T790M): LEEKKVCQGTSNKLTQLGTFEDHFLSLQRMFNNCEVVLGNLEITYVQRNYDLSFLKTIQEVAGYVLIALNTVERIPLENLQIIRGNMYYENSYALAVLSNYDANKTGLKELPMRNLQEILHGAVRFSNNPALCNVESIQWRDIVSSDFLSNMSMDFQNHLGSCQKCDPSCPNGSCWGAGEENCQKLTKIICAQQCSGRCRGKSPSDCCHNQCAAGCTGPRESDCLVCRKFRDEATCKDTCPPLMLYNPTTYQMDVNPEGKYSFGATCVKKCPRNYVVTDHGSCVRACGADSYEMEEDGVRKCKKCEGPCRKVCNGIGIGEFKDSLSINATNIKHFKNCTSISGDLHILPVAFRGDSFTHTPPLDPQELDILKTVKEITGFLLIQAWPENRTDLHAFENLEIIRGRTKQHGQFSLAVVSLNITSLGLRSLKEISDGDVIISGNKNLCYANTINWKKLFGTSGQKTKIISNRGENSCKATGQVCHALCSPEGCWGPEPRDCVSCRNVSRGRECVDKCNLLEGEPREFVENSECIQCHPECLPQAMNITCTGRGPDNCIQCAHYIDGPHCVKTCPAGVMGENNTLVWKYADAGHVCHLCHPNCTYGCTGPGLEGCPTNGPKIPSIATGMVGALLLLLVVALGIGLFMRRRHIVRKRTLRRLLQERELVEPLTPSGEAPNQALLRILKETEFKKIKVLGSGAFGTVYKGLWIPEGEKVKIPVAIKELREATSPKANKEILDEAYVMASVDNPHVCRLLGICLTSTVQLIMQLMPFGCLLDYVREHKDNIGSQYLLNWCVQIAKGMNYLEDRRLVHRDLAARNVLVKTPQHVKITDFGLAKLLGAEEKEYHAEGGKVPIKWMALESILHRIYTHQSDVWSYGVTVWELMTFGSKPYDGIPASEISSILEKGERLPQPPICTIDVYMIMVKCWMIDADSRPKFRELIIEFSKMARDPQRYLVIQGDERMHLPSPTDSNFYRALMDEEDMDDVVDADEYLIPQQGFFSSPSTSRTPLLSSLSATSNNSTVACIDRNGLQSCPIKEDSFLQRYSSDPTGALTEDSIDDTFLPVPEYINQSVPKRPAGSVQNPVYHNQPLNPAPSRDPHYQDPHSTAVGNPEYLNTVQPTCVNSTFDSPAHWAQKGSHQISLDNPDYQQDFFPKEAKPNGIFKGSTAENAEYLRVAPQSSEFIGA
# assay.details: Kinase assay, single dose inhibition (Millipore, 33P-ATP filter binding)
# Type: biochemical
# experimental.setup: 0.1 μM test compound, 10 μM ATP; remaining activity relative to DMSO control = 100%
For each record, check the reported Activity (control) % EGFR (T790M) (h): if it is below 20% write TRUE, else write FALSE.

compound	label.class
COc1cc(Nc2ncc(Cl)c(Nc3ccccc3C(=O)C(=O)N(C)C)n2)ccc1N1CCN(C(C)=O)CC1 [Example 94]	FALSE
C=CC(=O)Nc1ccc(OC)c(Nc2ncc(Cl)c(Nc3ccccc3C(=O)C(=O)N(CC)CC)n2)c1 [Example 131]	FALSE
C=CC(=O)Nc1cc(Nc2ncc(Cl)c(Nc3ccccc3C(=O)C(=O)N(C)C)n2)c(OC)cc1F [Example 66]	FALSE
C=CC(=O)Nc1cc(Nc2ncc(Cl)c(Nc3ccccc3C(=O)C(=O)N(C)C)n2)ccc1N1CCN(C)CC1 [Example 111]	FALSE
C=CC(=O)Nc1ccc(OC)c(Nc2ncc(Cl)c(Nc3ccccc3C(=O)C(=O)N(C)C)n2)c1 [Example 67]	FALSE
C=C(CN(C)C)C(=O)Nc1ccc(OC)c(Nc2ncc(Cl)c(Nc3ccccc3C(=O)C(=O)N(C)C)n2)c1 [Example 78]	TRUE
COc1ccc(NC(=O)/C=C/CN2CCOCC2)cc1Nc1ncc(Cl)c(Nc2ccccc2C(=O)C(=O)N(C)C)n1 [Example 79]	TRUE
COc1cc(N2CCN(C(C)=O)CC2)ccc1Nc1ncc(Cl)c(Nc2ccccc2C(=O)C(=O)N(C)C)n1 [Example 53]	FALSE
C=CC(=O)Nc1cc(Nc2ncc(Cl)c(Nc3ccccc3C(=O)C(=O)N(C)C)n2)ccc1OC [Example 65]	FALSE
C=CC(=O)Nc1ccc(OC2CCOC2)c(Nc2ncc(Cl)c(Nc3ccccc3C(=O)C(=O)N(C)C)n2)c1 (stereo not drawn) [Example 136]	FALSE
C=C(CN1CCOCC1)C(=O)Nc1ccc(OC)c(Nc2ncc(Cl)c(Nc3ccccc3C(=O)C(=O)N(C)C)n2)c1 [Example 41]	TRUE
C=CC(=O)Nc1cc(Nc2ncc(Cl)c(Nc3ccccc3C(=O)C(=O)N(CC)CC)n2)ccc1OC [Example 132]	FALSE
COc1cc(Nc2ncc(Cl)c(Nc3ccccc3C(=O)C(=O)N(C)C)n2)ccc1N1CCOCC1 [Example 117]	FALSE
C=CC(=O)Nc1cccc(Nc2nc(Nc3ccc(N4CCN(C(C)=O)CC4)cc3OC)ncc2C(F)(F)F)c1 [CO-1686, reference compound]	FALSE
C=CC(=O)Nc1cc(Nc2ncc(Cl)c(Nc3ccccc3C(=O)C(=O)N(C)CCN(C)C)n2)ccc1OC [Example 102]	FALSE

---

Known pIC50 of a selection of compounds
# Tested on: HCC827 (EGFR Del) NSCLC cells
# assay.details: Cell proliferation assay (MTS cell viability)
# Assay type: cell-based
# experimental.setup: Homo sapiens, 72 h; HCC827 cells, 3 days of exposure, MTS
pIC50: −log10 of the molar value.
endpoint.name: pIC50

chem.smiles	modifier	reading
COc1cc(N2CCN(C)CC2)ccc1Nc1ncc(C(F)(F)F)c(Nc2ccccc2C(=O)C(N)=O)n1	<	5.52
COc1cc(Nc2ncc(Cl)c(Nc3ccccc3C(=O)C(=O)N(C)C)n2)ccc1F	=	5.63
C=CC(=O)Nc1cc(Nc2ncc(Cl)c(Nc3ccccc3C(=O)C(=O)NC)n2)ccc1OC	=	6.35
CNC(=O)C(=O)c1ccccc1Nc1nc(Nc2ccc(N3CCC(N(C)C)CC3)cc2OC)ncc1Cl	=	6.05

Source: patent US10059688B2
